Where these numbers come from: patent US4948786A

# test.details: Acute toxicity (LD50)
# test.context: in vivo, sc; rat, subcutaneous administration
Structures can show the parent of a compound that is named as a salt.
measured.endpoint: LD50 (mg/kg)
Your answer is read as mg/kg, so omit the unit and give the number.

GET /value?item= Cc1c(C)c2c(c(C)c1OP(=O)(O)OC1=C(O)[C@@H]([C@@H](O)CO)OC1=O)CCC(C)(CCCC(C)CCCC(C)CCCC(C)C)O2 (mixture of isomers) [α-EPC-Na(DL), sodium salt] &field=LD50 returns 737

----------
# test.details: Acute toxicity (LD50)
# test.context: in vivo; rat, oral administration
Counter-ions that a name gives are not always drawn.
measured.endpoint: LD50

Sure, the documented LD50 for Cc1c(C)c2c(c(C)c1OP(=O)(O)OC1=C(O)[C@@H]([C@@H](O)CO)OC1=O)CCC(C)(CCCC(C)CCCC(C)CCCC(C)C)O2 (mixture of isomers) [α-EPC-Na(DL), sodium salt] is > 10000 mg/kg
